- testName: LDH cytotoxic activity assay, C6
- Format: cell-based
- measurementSetup: rat, C6 glioma cells, C6, 100 μg/mL
Lab note: compare cytotoxicity at 24 h, 100 μg/mL against 90%. Equal or greater, write YES. Smaller, write NO.

Take a look at these entries with their results.
{"compoundStructure": "Cc1ccccc1-c1cc(-c2ccccn2)nc(N[C@@H]2O[C@H](CO)[C@@H](O)[C@H](O)[C@H]2O)n1", "categoryLabel": "YES"}
{"compoundStructure": "CC(=O)OC[C@H]1O[C@@H](Nc2nc(-c3ccc(C)cc3)cc(-c3ccccn3)n2)[C@H](OC(C)=O)[C@@H](OC(C)=O)[C@@H]1OC(C)=O", "categoryLabel": "NO"}
{"compoundStructure": "CC(=O)OC[C@H]1O[C@@H](Nc2nc(-c3ccncc3)cc(-c3cccc(C)c3)n2)[C@H](OC(C)=O)[C@@H](OC(C)=O)[C@@H]1OC(C)=O", "categoryLabel": "NO"}

Here is the next item to consider.
Request: Check if cytotoxicity at 24 h, 100 μg/mL >= 90% (inclusive). Item: `Cc1ccc(-c2cc(-c3ccccn3)nc(N[C@@H]3O[C@H](CO)[C@@H](O)[C@H](O)[C@H]3O)n2)cc1`
Response: NO

From: paper PMC10387993
